The measured values listed here are drawn from ChEMBL document CHEMBL1671716.

# Test system: Prevotella intermedia
# assay notes: Antimicrobial activity against Prevotella intermedia after 48 hrs by agar dilution method
# Assay type: functional
observed property: MIC90 (µg/mL)

- Cc1ncc([N+](=O)[O-])n1CCO [METRONIDAZOLE]: 2
- CO[C@@]1(NC(=O)Cc2cccs2)C(=O)N2C(C(=O)O)=C(COC(N)=O)CS[C@@H]21 [CEFOXITIN]: 4
- O=C(N[C@H](CO)[C@H](O)c1ccc([N+](=O)[O-])cc1)C(Cl)Cl [CHLORAMPHENICOL]: 1

---

# Test system: Prevotella bivia
# assay notes: Antimicrobial activity against Prevotella bivia assessed as percent resistant isolates after 48 hrs by agar dilution method
# Format: functional
observed property: Activity

• CCN1CCN(C(=O)N[C@@H](C(=O)N[C@@H]2C(=O)N3[C@@H]2SC(C)(C)[C@@H]3C(=O)O)c2ccccc2)C(=O)C1=O = 11%
• C[C@@H](O)[C@H]1C(=O)N2C(C(=O)O)=C(SCCNC=N)C[C@H]12 [IMIPENEM ANHYDROUS] = 0%
• O=C(N[C@H](CO)[C@H](O)c1ccc([N+](=O)[O-])cc1)C(Cl)Cl = 0%
• CO[C@@]1(NC(=O)Cc2cccs2)C(=O)N2C(C(=O)O)=C(COC(N)=O)CS[C@@H]21 = 0%

---

# Tested on: Prevotella buccae
# assay notes: Antimicrobial activity against Prevotella buccae after 48 hrs by agar dilution method
# Assay type: functional
# setup conditions: Segatella buccae
Form field: MIC90 (one value per entry).
observed property: MIC90 (µg/mL)

* CCN1CCN(C(=O)N[C@@H](C(=O)N[C@@H]2C(=O)N3[C@@H]2SC(C)(C)[C@@H]3C(=O)O)c2ccccc2)C(=O)C1=O | 128
* Cc1ncc([N+](=O)[O-])n1CCO | 8
* CO[C@@]1(NC(=O)Cc2cccs2)C(=O)N2C(C(=O)O)=C(COC(N)=O)CS[C@@H]21 | 32
* C[C@@H](O)[C@H]1C(=O)N2C(C(=O)O)=C(S[C@@H]3CN[C@H](C(=O)N(C)C)C3)[C@H](C)[C@H]12 | 0.5
* CO[C@@]1(NC(=O)C2SC(=C(C(N)=O)C(=O)O)S2)C(=O)N2C(C(=O)O)=C(CSc3nnnn3C)CS[C@@H]21 (stereo partly drawn) | 64
* CCC[C@@H]1C[C@@H](C(=O)N[C@@H]([C@H]2O[C@H](SC)[C@H](O)[C@@H](O)[C@H]2O)[C@H](C)Cl)N(C)C1 | 128
* C[C@@H](O)[C@H]1C(=O)N2C(C(=O)O)=C(SCCNC=N)C[C@H]12 [IMIPENEM ANHYDROUS] | 0.5
* O=C(N[C@H](CO)[C@H](O)c1ccc([N+](=O)[O-])cc1)C(Cl)Cl | 8

---

# Tested on: Anaerococcus prevotii
# assay notes: Antimicrobial activity against Anaerococcus prevotii after 48 hrs by agar dilution method
# Type: functional
observed property: MIC50 (µg/mL)

- C[C@@H](O)[C@H]1C(=O)N2C(C(=O)O)=C(SCCNC=N)C[C@H]12 [IMIPENEM ANHYDROUS]: 0.06
- CO[C@@]1(NC(=O)Cc2cccs2)C(=O)N2C(C(=O)O)=C(COC(N)=O)CS[C@@H]21: 0.5
- Cc1ncc([N+](=O)[O-])n1CCO: 1
- CO[C@@]1(NC(=O)C2SC(=C(C(N)=O)C(=O)O)S2)C(=O)N2C(C(=O)O)=C(CSc3nnnn3C)CS[C@@H]21 (some centres undefined): 1
- CCC[C@@H]1C[C@@H](C(=O)N[C@@H]([C@H]2O[C@H](SC)[C@H](O)[C@@H](O)[C@H]2O)[C@H](C)Cl)N(C)C1: 2
- C[C@@H](O)[C@H]1C(=O)N2C(C(=O)O)=C(S[C@@H]3CN[C@H](C(=O)N(C)C)C3)[C@H](C)[C@H]12: 0.06
- COc1c(N2C[C@@H]3CCCN[C@@H]3C2)c(F)cc2c(=O)c(C(=O)O)cn(C3CC3)c12: 0.25
- O=C(N[C@H](CO)[C@H](O)c1ccc([N+](=O)[O-])cc1)C(Cl)Cl: 4
- CCN1CCN(C(=O)N[C@@H](C(=O)N[C@@H]2C(=O)N3[C@@H]2SC(C)(C)[C@@H]3C(=O)O)c2ccccc2)C(=O)C1=O: 0.125
